The reported measurements were obtained from patent US20250382303A1.

Target: NOX2 (Homo sapiens, UniProt P04839)
Construct: Used for the NOX2 activity assay was human leukemia 60 cells (HL-60), which are widely, universally used to assess NOX2 activity; endogenous in cells
Sequence (P04839 2-570 limits assumed): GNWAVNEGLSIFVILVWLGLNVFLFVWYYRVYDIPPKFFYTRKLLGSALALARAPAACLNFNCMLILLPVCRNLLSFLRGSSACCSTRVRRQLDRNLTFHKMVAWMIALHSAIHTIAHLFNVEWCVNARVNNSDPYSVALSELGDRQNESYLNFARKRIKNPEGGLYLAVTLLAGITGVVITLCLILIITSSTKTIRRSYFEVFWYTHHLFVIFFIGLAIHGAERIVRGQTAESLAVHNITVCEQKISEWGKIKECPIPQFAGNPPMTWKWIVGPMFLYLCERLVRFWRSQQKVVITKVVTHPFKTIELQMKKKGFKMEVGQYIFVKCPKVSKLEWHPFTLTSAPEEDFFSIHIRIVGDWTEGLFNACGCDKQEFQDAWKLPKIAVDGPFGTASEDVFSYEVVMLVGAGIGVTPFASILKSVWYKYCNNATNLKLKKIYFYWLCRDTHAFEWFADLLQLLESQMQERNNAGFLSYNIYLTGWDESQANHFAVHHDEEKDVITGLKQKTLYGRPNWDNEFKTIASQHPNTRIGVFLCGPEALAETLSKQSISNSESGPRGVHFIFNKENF
Sequence (P13498 2-195 partner limits assumed): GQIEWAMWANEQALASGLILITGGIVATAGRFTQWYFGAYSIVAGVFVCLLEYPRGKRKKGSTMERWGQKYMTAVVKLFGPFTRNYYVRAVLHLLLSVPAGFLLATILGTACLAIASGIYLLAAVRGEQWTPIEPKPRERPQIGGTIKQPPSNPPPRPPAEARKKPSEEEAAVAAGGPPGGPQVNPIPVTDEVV
Experiment: NOX2 activity assay: PMA-induced ROS in ATRA-differentiated HL-60 cells (WST-1 or Amplex Red/HRP probe)
Settings: WST-1 probe; differentiated HL-60, 200 ng/mL PMA; read-out: Inhibitory ability (NOX2)
readout_kind: IC50

Look up IC50 for this compound: CC12CC(NC(=O)N1c1cccc(C(=O)N3CCc4ccccc4C3)c1)c1ccc(-c3ccoc3)cc1O2 (centres unmarked) [Compound 26j] 1 to 10 µM

Thanks! And CC12CC(NC(=O)N1c1cccc(C(=O)NC3Cc4ccccc4C3)c1)c1ccccc1O2 (racemic) [Compound 8e] ? > 10 µM

// repeat for COc1ccc2c(c1)OC1(C)CC2NC(=O)N1c1cccc(C(=O)N2CCc3ccccc3C2)c1 (centres unmarked) [Compound 25l] and report > 10 µM

Also CC12CC(NC(=O)N1c1cccc(C(=O)N3CCc4cc(C(F)(F)F)ccc4C3)c1)c1cc(-c3ccoc3)ccc1O2 (centres unmarked) [Compound 28h] ? > 10 µM

Another: COc1cccc2c1OC1(C)CC2NC(=O)N1c1cccc(C(=O)N2CCc3ccccc3C2)c1 (centres unmarked) [Compound 25g] > 10 µM

Now try CC12CC(NC(=O)N1c1cccc(C(=O)N3CCc4cc(C(F)(F)F)ccc4C3)c1)c1cc(Br)ccc1O2 (centres unmarked) [Compound 27h] . 1 to 10 µM

Now the compound CC12CC(NC(=O)N1c1cccc(C(=O)N3CCc4c(F)cccc4C3)c1)c1cc(-c3ccoc3)ccc1O2 (centres unmarked) [Compound 28d] > 10 µM

One more compound: CC12CC(NC(=O)N1c1cccc(C(=O)N3CCc4ccccc4C3(C)C)c1)c1cc(-c3ccoc3)ccc1O2 (centres unmarked) [Compound 28j] > 10 µM

How about COc1cc2c(cc1OC)CN(C(=O)c1cccc(N3C(=O)NC4CC3(C)Oc3ccccc34)c1)CC2 (racemic) [Compound 8b] ? > 10 µM

Input CC12CC(NC(=O)N1c1cccc(C(=O)NCCc3ccc(C(F)(F)F)cc3)c1)c1ccccc1O2 (racemic) [Compound 8d] 1 to 10 µM

Next compound: CN1C(=O)N(c2cccc(-c3ccco3)c2)C2(C)CC1c1ccccc1O2 (centres unmarked) [Compound 16] > 10 µM

Thanks! And C[C@@]12C[C@@H](NC(=O)N1c1cccc(C(=O)NCc3ccc(Br)cc3)c1)c1ccccc1O2 [Compound 10b] ? > 10 µM

Now this one: CC12CC(NC(=O)N1c1cccc(C(=O)N3CCc4ccccc4C3)c1)c1cc(F)ccc1O2 (centres unmarked) [Compound 25d] 1 to 10 µM

How about this compound: CC12CC(NC(=O)N1c1cccc(C(=O)NCc3ccco3)c1)c1ccccc1O2 (racemic) [Compound 8g] > 10 µM

Here is the next compound: CC12CC(NC(=O)N1c1cccc(C(=O)N3CCc4ccccc4C3)c1)c1ccc(-c3ccsc3)cc1O2 (centres unmarked) [Compound 26i] 1 to 10 µM

// repeat for CC12CC(NC(=O)N1c1cccc(C(=O)N3CCc4ccccc4C3)c1)c1cccc(-c3ccsc3)c1O2 (centres unmarked) [Compound 26g] and report 1 to 10 µM

# repeat for CC12CC(NC(=O)N1c1cccc(C(=O)N3CCc4ccc(F)cc4C3)c1)c1cc(Br)ccc1O2 (centres unmarked) [Compound 27a] 1 to 10 µM

Consider next the compound CC12CC(NC(=O)N1c1cccc(-c3cccc(C#N)c3)c1)c1ccccc1O2 (centres unmarked) [Compound 15a] in the same way. > 10 µM

Proceed to CN1C(=O)N(c2cccc(C(=O)N3CCc4ccccc4C3)c2)C2(C)CC1c1ccccc1O2 (centres unmarked) [Compound 9] > 10 µM

Repeat for the following compound: CC12CC(NC(=O)N1c1cccc(C(=O)N3CCc4cc(F)ccc4C3)c1)c1cc(-c3ccoc3)ccc1O2 (centres unmarked) [Compound 28b] 1 to 10 µM
